target: Class B β-lactamase (A. hydrophila enzyme) (Aeromonas hydrophila); construct: Bacillus cereus, Pseudomonas aeruginosa and Aeromonas hydrophila; endogenous in cells; assay: Inhibition/inactivation kinetics, reporter substrate imipenem; conditions: inactivation kinetics; 200 μM imipenem; 30° C., pH 6.5, 0.1 mM ZnCl2; read-out: K = apparent binding constant between the enzyme and substrate
Sequence (P26918 28-254): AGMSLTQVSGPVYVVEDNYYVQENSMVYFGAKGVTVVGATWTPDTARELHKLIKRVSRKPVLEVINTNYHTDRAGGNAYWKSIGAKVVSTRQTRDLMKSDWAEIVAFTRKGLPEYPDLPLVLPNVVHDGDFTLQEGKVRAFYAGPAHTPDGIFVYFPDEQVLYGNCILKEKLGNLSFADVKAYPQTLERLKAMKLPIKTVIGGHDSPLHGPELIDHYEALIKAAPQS
measurementKind: Ki (µM)

> print(dat)
                                   molecule                               assaysystem  reported
1  O=C(COc1ccccc1)N[C@@H](Cc1ccccc1)[C@H](O)C(F)(F)F [Compound 4]  Class B β-lactamase (A. hydrophila enzyme) (Aeromonas hydrophila)        19
2  O=C(COc1ccccc1)N[C@H](Cc1ccccc1)[C@H](O)C(F)(F)F [Compound 5]  Class B β-lactamase (A. hydrophila enzyme) (Aeromonas hydrophila)        20
3  C[C@H](NC(=O)COc1ccccc1)C(=O)C(F)(F)F [Compound 6]  Class B β-lactamase (A. hydrophila enzyme) (Aeromonas hydrophila)        44
4  C[C@@H](NC(=O)COc1ccccc1)C(=O)C(F)(F)F [Compound 7]  Class B β-lactamase (A. hydrophila enzyme) (Aeromonas hydrophila)        11
5  O=C(COc1ccccc1)N[C@@H](Cc1ccccc1)C(=O)C(F)(F)F [Compound 3]  Class B β-lactamase (A. hydrophila enzyme) (Aeromonas hydrophila)         6
6  C[C@@H](NC(=O)COc1ccccc1)[C@H](O)C(F)(F)F [Compound 9]  Class B β-lactamase (A. hydrophila enzyme) (Aeromonas hydrophila)       217

====

target: Class B β-lactamase (X. maltophilia enzyme) (Stenotrophomonas maltophilia, UniProt P52700); construct: standard procedures from a range of bacteria, including: Xanthomonas maltophilia; endogenous in cells; host or cells: Xanthomonas maltophilia (enzyme purified from the bacterium); assay: Ki determination, initial rate of hydrolysis of reporter substrate nitrocefin; assay type: biochemical, Xanthomonas maltophilia
Sequence (P52700 34-290): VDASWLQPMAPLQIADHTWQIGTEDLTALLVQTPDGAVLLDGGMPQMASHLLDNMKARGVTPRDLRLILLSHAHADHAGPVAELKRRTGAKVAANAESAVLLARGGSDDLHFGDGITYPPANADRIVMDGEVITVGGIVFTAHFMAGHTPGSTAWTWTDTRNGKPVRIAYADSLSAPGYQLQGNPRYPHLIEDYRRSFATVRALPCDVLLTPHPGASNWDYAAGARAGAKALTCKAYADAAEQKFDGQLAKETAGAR
pKi: −log10 of the molar value.
measurementKind: pKi

> print(dat)
                                        mol  measurementkind  reported
1  O=C(COc1ccccc1)N[C@@H](Cc1ccccc1)C(=O)C(F)(F)F              pKi      4.82
2     C[C@H](NC(=O)COc1ccccc1)C(=O)C(F)(F)F              pKi      5.82
3    C[C@@H](NC(=O)COc1ccccc1)C(=O)C(F)(F)F              pKi      5.52

====

target: Class B β-lactamase (B. cereus enzyme) (Bacillus cereus); construct: from a range of bacteria, including: Xanthomonas maltophilia, Bacillus cereus; endogenous in cells; host or cells: Bacillus cereus (enzyme purified from the bacterium); experiment: Ki determination, initial rate of hydrolysis of reporter substrate cephalosporin C; type: biochemical; details: read-out: Ki (inhibition constant); competitive inhibition; 1 mM cephalosporin C; 30° C., pH 6.5, 0.1 mM ZnCl2
Sequence (P04190 31-257): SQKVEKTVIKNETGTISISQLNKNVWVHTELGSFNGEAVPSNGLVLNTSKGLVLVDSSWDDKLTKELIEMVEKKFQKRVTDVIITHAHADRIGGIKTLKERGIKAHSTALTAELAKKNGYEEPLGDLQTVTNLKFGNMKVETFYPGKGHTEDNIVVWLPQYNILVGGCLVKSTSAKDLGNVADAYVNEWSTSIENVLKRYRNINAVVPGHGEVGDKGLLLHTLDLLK
Below: a set of entries, each annotated with reported Ki.
measurementKind: Ki (µM)

> print(dat)
                                        mol  reported
1  O=C(COc1ccccc1)N[C@@H](Cc1ccccc1)[C@H](O)C(F)(F)F      1000
2  C[C@H](NC(=O)COc1ccccc1)[C@H](O)C(F)(F)F       300
3  C[C@@H](NC(=O)COc1ccccc1)[C@H](O)C(F)(F)F       700
4  O=C(COc1ccccc1)N[C@H](Cc1ccccc1)[C@H](O)C(F)(F)F        30
